Structures can show the parent of a compound that is named as a salt.
Measured Attribute: melting point

{"columns": ["Compound", "melting point"],
 "data": [
  ["CCCN(CCC)c1ccc2nc3c4ccccc4c(=Nc4ccncc4)cc-3oc2c1", "215 to 216 °C"],
  ["CCCCN(CCCC)c1ccc2nc3c4ccccc4c(=Nc4ccncc4)cc-3oc2c1", "188 to 189 °C"],
  ["CCN(CC)c1ccc2nc3c4ccccc4c(=Nc4ncc(Cl)cc4Cl)cc-3oc2c1", "192 to 193 °C"],
  ["CCN(CC)c1ccc2nc3c4ccccc4c(=Nc4ncccn4)cc-3oc2c1", "208 to 210 °C"],
  ["CCN(CC)c1ccc2nc3c4ccc(Br)cc4c(=Nc4ccccn4)cc-3oc2c1", "204 to 205 °C"],
  ["CCN(CC)c1cc(C)c2c(c1)OC1=CC(Nc3ccccn3)c3ccccc3C1=N2 (centres unmarked) (as salt: HCl)", "167.2 to 168.4 °C"]
]}

What measured melting point goes with CCN(CC)c1ccc2nc3c4ccccc4c(=Nc4cc(C)nc5ccccc45)cc-3oc2c1 ?
229 to 230 °C

Moving on to the next compound: c1ccc2c(=Nc3ccncc3)cc3oc4cc(N5CCOCC5)ccc4nc-3c2c1
> 300 °C

====

Form field: EC50 (one value per entry).
Test system: Leishmania donovani (MHOM/ET/67/L82 strain)
Test: Leishmania protozoa growth inhibition screening test
Type: cell-based
Conditions: Leishmania donovani; Table 5; amastigotes, 72 hours, Alamar Blue; read-out: 50% Growth inhibition concentration Leishmania donovani
Entry rule: numbers only, all in µg/mL.

Worked cases, EC50 given:
{"columns": ["Molecule", "Measured Attribute", "Reported Measurement"],
 "data": [
  ["CCN(CC)c1ccc2nc3c4ccccc4c(=Nc4cc(C)on4)cc-3oc2c1 [Compound 1J]", "EC50", 1.86],
  ["CCCCCCCCCCCCCCCCOP(=O)([O-])OCC[N+](C)(C)C [Milfotesine, miltefosine, reference compound]", "EC50", 0.114],
  ["CCN(CC)c1ccc2nc3c4ccccc4c(=Nc4ncccn4)cc-3oc2c1 [Compound 1L]", "EC50", 0.662],
  ["CCN(CC)c1ccc2nc3c4ccccc4c(=Nc4nc5ccc(Cl)cc5s4)cc-3oc2c1 [Compound 1I]", "EC50", 19.6]
]}

Data request, read-out EC50, for CCN(CC)c1ccc2nc3c4ccccc4c(=Nc4ncc(Cl)cc4Cl)cc-3oc2c1 [Compound 1K]
8.13

What do we get for CCN(CC)c1ccc2nc3c4ccccc4c(=Nc4ccc5ccccc5n4)cc-3oc2c1 [Compound 1H] ?
1.25

Next: CCN(CC)c1ccc2nc3c4ccc(Br)cc4c(=Nc4ccncc4)cc-3oc2c1 [Compound 1G]
19.1

For CCN(CC)c1ccc2nc3c4ccccc4c(=Nc4nc5ccc(OC)cc5s4)cc-3oc2c1 [Compound 1M] then?
13.8

====

Measured melting point of individual entries
Structures can show the parent of a compound that is named as a salt.

{"columns": ["Compound", "melting point"],
 "data": [
  ["CCN(CC)c1cc(C)c2c(c1)OC1=CC(Nc3ccncc3)c3ccccc3C1=N2 (centres unmarked) (as salt: HCl) [Compound 1c]", "> 300 °C"],
  ["CCN(CC)c1ccc2nc3c4ccc(Br)cc4c(=Nc4ccncc4)cc-3oc2c1 [Compound 1G]", "269 to 271 °C"]
]}

Which melting point is listed for CCOC(=O)C(Cc1ccc(O)cc1)N=c1cc2oc3cc(N(CC)CC)ccc3nc-2c2ccccc12 (centres unmarked) [Compound 1Q] ?
175 to 181 °C

And for CCN(CC)c1ccc2nc3c4ccccc4c(=Nc4cc(C)on4)cc-3oc2c1 [Compound 1J] ?
195 to 196 °C

====

Below: a set of entries, each annotated with reported Selective toxicity.
Tested on: Plasmodium falciparum K1
Assay: Chloroquine resistant-Plasmodium falciparum growth inhibition screening test
Assay type: cell-based
Conditions: EC50 against rat L6 cells / EC50 against P. falciparum K1
Quick one: just the number, no unit, thanks!

{"columns": ["Compound", "Test Target", "Reported Measurement"],
 "data": [
  ["CCN(CC)c1ccc2nc3c4ccccc4c(=Nc4cc(C)nc5ccccc45)cc-3oc2c1", "Plasmodium falciparum K1", 183],
  ["CCN(CC)c1ccc2nc3c4ccccc4c(=Nc4cc(C)on4)cc-3oc2c1", "Plasmodium falciparum K1", 7360],
  ["CCN(CC)c1ccc2nc3c4ccccc4c(=Nc4ccc5ccccc5n4)cc-3oc2c1", "Plasmodium falciparum K1", 2513]
]}

// fetch Plasmodium falciparum K1 Selective toxicity for c1ccc(/N=c2/cc3oc4cc(N5CCOCC5)ccc4nc-3c3ccccc23)nc1
1386

Item: CCN(CCNS(C)(=O)=O)c1cc(C)c2nc3c4ccccc4c(=Nc4ccncc4)cc-3oc2c1
885

Field entry: CCN(CC)c1ccc2nc3c4ccccc4c(=Nc4ncccn4)cc-3oc2c1
2700

====

Test system: Rat L6 cells
Assay: Growth inhibition test of rat L6 cells
Assay type: cell-based
Conditions: Table 2, unit inferred, 72 hours, read-out: Cytoxicity L6
Measured Attribute: EC50 (µg/mL)
Please state the figure in µg/mL; there is no need to write the unit.

{"columns": ["Compound", "Reported Measurement"],
 "data": [
  ["CCN(CC)c1ccc2nc3c4ccccc4c(=Nc4cccnc4)cc-3oc2c1", 46.1],
  ["CCOC(=O)C(Cc1ccc(O)cc1)N=c1cc2oc3cc(N(CC)CC)ccc3nc-2c2ccccc12 (stereo not shown)", 33.8],
  ["CCN(CCNS(C)(=O)=O)c1cc(C)c2nc3c4ccccc4c(=Nc4ccncc4)cc-3oc2c1", 7.97]
]}

// lookup EC50 for CCN(CCNS(C)(=O)=O)c1cc(C)c2nc3c4ccccc4c(=Nc4cccnc4)cc-3oc2c1
23.9

Param item: CCN(CC)c1ccc2nc3c4ccccc4c(=Nc4cc(C)nc5ccccc45)cc-3oc2c1
6.6

Likewise for c1ccc(/N=c2/cc3oc4cc(N5CCOCC5)ccc4nc-3c3ccccc23)nc1 ?
20.8

Also need CCN(CCNS(C)(=O)=O)c1cc(C)c2nc3c4ccccc4c(=Nc4ccccn4)cc-3oc2c1 , thanks.
0.307

====

Listed below: Selective toxicity values for each entry.
System: Plasmodium falciparum K1
Assay: Chloroquine resistant-Plasmodium falciparum growth inhibition screening test
Format: cell-based
Settings: EC50 against rat L6 cells / EC50 against P. falciparum K1
Method: In the present experiment, protozoa of plasmodium falsiparum K1 strain was used. RPMI-1640 medium sterilized with a filter to which human serum was added to be 5%, was used in the experiment. […] […] Radiation intensity was measured with a beta plate liquid scintillation counter (Wallac), and malarial parasite infection rates of the test solution added group and the control group were calculated. […]
No unit in the answer, only the number.

{"columns": ["Compound", "Selective toxicity"],
 "data": [
  ["CCN(CCNS(C)(=O)=O)c1cc(C)c2nc3c4ccccc4c(=Nc4cccnc4)cc-3oc2c1", 2988],
  ["CCN(CC)c1ccc2nc3c4ccccc4c(=Nc4nc5ccc(OC)cc5s4)cc-3oc2c1", 1492],
  ["CCN(CC)c1ccc2nc3c4ccccc4c(=Nc4ncc(Cl)cc4Cl)cc-3oc2c1", 2866]
]}

// lookup Selective toxicity for CCOC(=O)C(Cc1ccc(O)cc1)N=c1cc2oc3cc(N(CC)CC)ccc3nc-2c2ccccc12 (centres unmarked)
751

CCN(CCNS(C)(=O)=O)c1cc(C)c2nc3c4ccccc4c(=Nc4ccccn4)cc-3oc2c1 ?
43

Consider next the compound CCN(CC)c1ccc2nc3c4ccccc4c(=Nc4cccnc4)cc-3oc2c1 in the same way.
5123

====

Tested on: Plasmodium falciparum K1
Assay: Chloroquine resistant-Plasmodium falciparum growth inhibition screening test
Format: cell-based
Conditions: Plasmodium falciparum; Table 2; unit inferred; chloroquine-resistant K1 strain; read-out: P. falciparum K1
Measured Attribute: EC50 (ng/mL)

{"columns": ["Compound", "Measured Attribute", "Reported Measurement"],
 "data": [
  ["CCN(CC)c1ccc2nc3c4ccccc4c(=Nc4cc(C)nc5ccccc45)cc-3oc2c1", "EC50", 36],
  ["CCN(CCNS(C)(=O)=O)c1cc(C)c2nc3c4ccccc4c(=Nc4ccncc4)cc-3oc2c1", "EC50", 9],
  ["CCN(CC)c1ccc2nc3c4ccccc4c(=Nc4cccnc4)cc-3oc2c1", "EC50", 9],
  ["CCOC(=O)C(Cc1ccc(O)cc1)N=c1cc2oc3cc(N(CC)CC)ccc3nc-2c2ccccc12 (stereo not shown)", "EC50", 45],
  ["CCN(CCNS(C)(=O)=O)c1cc(C)c2nc3c4ccccc4c(=Nc4ccccn4)cc-3oc2c1", "EC50", 7],
  ["c1ccc(/N=c2/cc3oc4cc(N5CCOCC5)ccc4nc-3c3ccccc23)nc1", "EC50", 15],
  ["CCN(CCNS(C)(=O)=O)c1cc(C)c2nc3c4ccccc4c(=Nc4cccnc4)cc-3oc2c1", "EC50", 8]
]}

The reported numbers originate from patent US8288374B2.
